ASSAYED SYSTEM: T1, CCR5 Thr^2.56(82)Pro mutant receptor (human, UniProt P51681 1-352, Thr^2.56(82)Pro)
T1 construct: also called T^2.69(82)P; source: HOS-CD4-Luc, transiently transfected, on cells (fusion)
T1 sequence: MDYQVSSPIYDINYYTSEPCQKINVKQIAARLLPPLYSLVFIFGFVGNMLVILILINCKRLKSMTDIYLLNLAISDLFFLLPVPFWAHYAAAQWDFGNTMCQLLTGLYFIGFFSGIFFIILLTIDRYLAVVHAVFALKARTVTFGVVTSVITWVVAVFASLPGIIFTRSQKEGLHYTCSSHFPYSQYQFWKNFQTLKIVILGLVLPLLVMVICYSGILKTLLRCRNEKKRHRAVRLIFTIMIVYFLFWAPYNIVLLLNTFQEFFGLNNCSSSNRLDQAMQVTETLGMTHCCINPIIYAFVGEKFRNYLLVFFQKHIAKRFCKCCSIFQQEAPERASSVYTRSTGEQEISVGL
ASSAY TEXT: radioligand binding
STUDY CONDITIONS: one partner purified
MEASURED PROPERTY: pIC50
Scale explanation: pIC50 corresponds to minus log10 of a concentration expressed in moles per litre.

Query: Look at this binder and give its reported pIC50. macrophage inflammatory protein 1β (MIP-1β, CCL4), recombinant human, unlabelled (ligand, also called unlabelled MIP-1β; source: bought: Peprotec (Rocky Hill, NJ)) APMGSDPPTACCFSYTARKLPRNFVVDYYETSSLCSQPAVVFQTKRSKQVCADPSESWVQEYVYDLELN
Result: 7.50
